Biological target: human FGFR1c + KLB receptor complex on HEK293 iLite FGF21 reporter cells (human, UniProt P11362 22-822; Q86Z14 1-1044)
Sequence (P11362 22-822, chain 1 of 2): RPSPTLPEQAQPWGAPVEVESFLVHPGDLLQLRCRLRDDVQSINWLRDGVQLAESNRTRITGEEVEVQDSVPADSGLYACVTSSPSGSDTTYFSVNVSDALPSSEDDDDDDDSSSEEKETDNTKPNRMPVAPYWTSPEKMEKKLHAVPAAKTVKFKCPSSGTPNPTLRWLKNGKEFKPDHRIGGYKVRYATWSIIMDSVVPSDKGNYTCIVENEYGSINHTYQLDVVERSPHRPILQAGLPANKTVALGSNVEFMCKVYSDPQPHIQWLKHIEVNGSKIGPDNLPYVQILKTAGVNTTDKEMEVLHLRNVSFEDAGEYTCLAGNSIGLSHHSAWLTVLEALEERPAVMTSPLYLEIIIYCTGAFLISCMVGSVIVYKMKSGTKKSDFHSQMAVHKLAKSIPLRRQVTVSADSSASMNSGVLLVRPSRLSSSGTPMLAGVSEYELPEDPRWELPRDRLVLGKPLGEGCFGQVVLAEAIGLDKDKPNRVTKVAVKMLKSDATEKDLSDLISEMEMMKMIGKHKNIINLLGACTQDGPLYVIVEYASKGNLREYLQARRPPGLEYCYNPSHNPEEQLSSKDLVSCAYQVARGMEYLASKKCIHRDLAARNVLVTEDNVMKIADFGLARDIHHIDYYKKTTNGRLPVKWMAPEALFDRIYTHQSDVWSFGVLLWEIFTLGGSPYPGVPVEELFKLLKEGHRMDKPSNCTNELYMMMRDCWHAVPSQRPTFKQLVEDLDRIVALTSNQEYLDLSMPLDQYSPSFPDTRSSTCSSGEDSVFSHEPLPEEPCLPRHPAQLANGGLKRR
Sequence (Q86Z14 whole entry, chain 2 of 2): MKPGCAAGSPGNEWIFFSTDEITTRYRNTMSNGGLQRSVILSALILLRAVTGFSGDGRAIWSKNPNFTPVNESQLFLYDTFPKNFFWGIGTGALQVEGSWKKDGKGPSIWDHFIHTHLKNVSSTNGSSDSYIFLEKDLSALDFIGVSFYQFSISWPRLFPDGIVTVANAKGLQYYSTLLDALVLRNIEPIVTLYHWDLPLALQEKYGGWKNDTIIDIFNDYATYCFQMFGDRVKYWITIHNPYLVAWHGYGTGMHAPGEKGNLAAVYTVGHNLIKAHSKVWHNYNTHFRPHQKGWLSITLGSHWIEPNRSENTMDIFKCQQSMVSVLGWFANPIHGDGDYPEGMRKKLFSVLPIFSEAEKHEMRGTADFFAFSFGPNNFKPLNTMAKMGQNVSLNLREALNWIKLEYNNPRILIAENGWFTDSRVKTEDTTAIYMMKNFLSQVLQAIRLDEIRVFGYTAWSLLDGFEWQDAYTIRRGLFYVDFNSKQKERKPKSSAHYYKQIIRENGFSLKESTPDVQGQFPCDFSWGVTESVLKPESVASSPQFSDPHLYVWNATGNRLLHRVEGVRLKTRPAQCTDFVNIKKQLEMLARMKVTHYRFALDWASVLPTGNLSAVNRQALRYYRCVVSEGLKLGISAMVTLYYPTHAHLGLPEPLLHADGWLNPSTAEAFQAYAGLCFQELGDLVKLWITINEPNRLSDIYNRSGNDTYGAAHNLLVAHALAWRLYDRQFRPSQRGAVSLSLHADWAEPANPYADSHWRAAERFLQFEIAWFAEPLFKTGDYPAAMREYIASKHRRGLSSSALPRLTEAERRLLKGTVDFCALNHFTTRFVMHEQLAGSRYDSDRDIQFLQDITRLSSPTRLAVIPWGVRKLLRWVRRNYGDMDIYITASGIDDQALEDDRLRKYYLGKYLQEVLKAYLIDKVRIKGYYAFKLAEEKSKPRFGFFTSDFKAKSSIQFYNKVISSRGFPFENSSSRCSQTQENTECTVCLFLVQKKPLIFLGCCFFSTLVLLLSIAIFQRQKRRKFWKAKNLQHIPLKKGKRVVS
Assay: cell-based or functional assay

binder: Ab0310 (antibody, IgG4, V domains shown, IgG4 PE) VH: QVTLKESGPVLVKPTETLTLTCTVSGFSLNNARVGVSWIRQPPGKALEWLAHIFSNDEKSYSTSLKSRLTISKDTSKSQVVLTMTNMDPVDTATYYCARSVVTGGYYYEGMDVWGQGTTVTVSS VL: SYVLTQPPSVSVAPGQTARITCGGSNIGSESVHWYQQKPGQAPVLVVYDESDRPSGIPERFSGSNSGNTATLTISRVEAGDEADYYCQVWDGESDHVVFGGGTKLTVLG
uom: nM
modifier-sign: =
EC50: 0.05
--
binder: Ab0383 (antibody, IgG4, V domains shown) VH: QVTLKESGPVLVKPTETLTLTCTVSGFSLNNARVGVSWIRQPPGKALEWLAWIFSNDEKSYSTSLKSRLTISKDTSKSQVVLTMTNMDPVDTATYYCARSVVTGGYYYEGMDVWGQGTTVTVSS VL: SYVLTQPPSVSVAPGQTARITCGGNNIGSESVHWYQQKPGQAPVLVVDDSDRPSGIPERFSGSNSGNTATLTISRVEAGDEADYYCQVFDGNSVHVVFGGGTKLTVLG
uom: nM
modifier-sign: >
EC50: 100
